Assay: Antioxidant activity assessed as inhibition of lipid peroxidation at 0.125 g/L after 2 hrs by beta carotene bleaching method
Type: functional
RECORDED_METRIC: inhibition (%)
Kindly answer with a numeric value in %, unit omitted.

Sample answers from the record:
Could you tell me which inhibition is on file for `COc1cccc(Nc2cccc3c(C)c(C)sc23)c1` ? 82.6

Could you tell me which inhibition is on file for `COc1ccc(Nc2cccc3c(C)c(C)sc23)cc1OC` ? 100

Could you tell me which inhibition is on file for `Cc1sc2c(Nc3ccc(C#N)cc3)cccc2c1C` ? 71

Could you tell me which inhibition is on file for `Cc1sc2c(Nc3cccnc3)cccc2c1C` ? 76.1

Could you tell me which inhibition is on file for `COc1ccc(Nc2cccc3c(C)c(C)sc23)cc1` ? 100

Now for a further molecule.
Could you tell me which inhibition is on file for `Cc1sc2c(Nc3ccccn3)cccc2c1C` ? 45.9

* * *

System: Radical scavenging activity
Assay: Antioxidant activity assessed as DPPH radical scavenging activity at 0.0625 g/L
Format: functional
I'd appreciate it if you marked entries rule met when Activity is lower than 10% and rule not met when it is not.

Hello, is Activity of the following compound strictly smaller than 10%? `Cc1sc2c(Nc3ccccn3)cccc2c1C` rule met

Hello, is Activity of the following compound strictly smaller than 10%? `Cc1sc2c(Nc3ccc(C#N)cc3)cccc2c1C` rule met

Hello, is Activity of the following compound strictly smaller than 10%? `COc1ccc(Nc2cccc3c(C)c(C)sc23)cc1` rule not met

Hello, is Activity of the following compound strictly smaller than 10%? `COc1cccc(Nc2cccc3c(C)c(C)sc23)c1` rule not met

Hello, is Activity of the following compound strictly smaller than 10%? `Cc1sc2c(Nc3cccnc3)cccc2c1C` rule met

Next, consider the following compound.
Hello, is Activity of the following compound strictly smaller than 10%? `COc1ccc(Nc2cccc3c(C)c(C)sc23)cc1OC` rule not met

* * *

Assay: Antioxidant activity assessed as inhibition of lipid peroxidation at 0.0312 g/L after 2 hrs by beta carotene bleaching method
Type: functional
Quick list: inhibition per entry.

Could you tell me which inhibition is on file for `COc1ccc(Nc2cccc3c(C)c(C)sc23)cc1OC` ? 91.4%

Now for a further compound.
Could you tell me which inhibition is on file for `COc1ccc(Nc2cccc3c(C)c(C)sc23)cc1` ? 96.8%

* * *

Experiment: Antioxidant activity assessed as inhibition of lipid peroxidation at 0.0625 g/L after 2 hrs by beta carotene bleaching method
Type: functional
Everything with inhibition lower than 70% is N; everything else, including exactly 70%, is Y.

Check the entry `COc1ccc(Nc2cccc3c(C)c(C)sc23)cc1` : does inhibition equal or exceed 70%? Y

Continuing:
Check the entry `Cc1sc2c(Nc3ccccn3)cccc2c1C` : does inhibition equal or exceed 70%? N

Check the entry `COc1ccc(Nc2cccc3c(C)c(C)sc23)cc1OC` : does inhibition equal or exceed 70%? Y

* * *

System: Radical scavenging activity
Experiment: Antioxidant activity assessed as DPPH radical scavenging activity at 0.250 g/L
Format: functional
Quick list: Activity per entry.
Kindly answer with a numeric value in %, unit omitted.

Sample answers from the record:
Could you tell me which Activity is on file for `Cc1sc2c(Nc3cccnc3)cccc2c1C` ? 15.5

Could you tell me which Activity is on file for `COc1ccc(Nc2cccc3c(C)c(C)sc23)cc1OC` ? 94.7

Continuing:
Could you tell me which Activity is on file for `Cc1sc2c(Nc3ccccn3)cccc2c1C` ? 9

Could you tell me which Activity is on file for `COc1ccc(Nc2cccc3c(C)c(C)sc23)cc1` ? 93.3

Could you tell me which Activity is on file for `COc1cccc(Nc2cccc3c(C)c(C)sc23)c1` ? 28.4

Could you tell me which Activity is on file for `Cc1sc2c(Nc3ccc(C#N)cc3)cccc2c1C` ? 3.1
